- PROCEDURE SUMMARY: NCI Yeast Anticancer Drug Screen. Data for the mec2-1 strain (AID 157)
- CONDITION SET: S. cerevisiae mec2-1 strain, at 50.0 µM
This is part of a sample that, as a whole, favours compounds with a hit. Of some 79,000 tested, about 15% had one in any assay. Active and inactive are the calls of the source. No stated cut-off is given here; in the data, active means growth inhibition above about 70%; inactive means the rest.
// one of t = active, f = inactive, no free text

Exercise: Which result was noted for this compound in the test: "CC(=O)O/N=C1C=C/C(=C(/C#N)c2ccccc2)C=C/1C"
Solution: t

Exercise: Which result was noted for this compound in the test: CC1=CN2C(c3ccccc3)=NON(c3ccc(C)cn3)C2C=C1 (stereo unspecified)
Solution: f

Exercise: Which result was noted for this compound in the test: "CC(C)N(CCCNc1c2ccccc2nc2cccc([N+](=O)[O-])c12)C(C)C"
Solution: t

Exercise: Which result was noted for this compound in the test: COc1cccc(C(NC2=NCCC=N2)c2cc3c(cc2O)OCO3)c1O (stereo unspecified)
Solution: f

Exercise: Which result was noted for this compound in the test: "CN(N=O)C(=O)Nc1ccc(C(=O)O)cc1"
Solution: f

Exercise: Which result was noted for this compound in the test: "O=[N+]([O-])c1ccc(/C=C\c2ccc3c(c2)OCO3)c([N+](=O)[O-])c1"
Solution: t

###

- PROCEDURE SUMMARY: NCI Yeast Anticancer Drug Screen. Data for the rad18 strain (AID 177)
- CONDITION SET: S. cerevisiae rad18 mutant growth inhibition; at 33.0 µM; stronger effect = higher value
This is part of a sample that, as a whole, favours compounds with a hit. Of some 79,000 tested, about 15% had one in any assay.
So I've got a bunch of compounds here, and I need their growth inhibition values.
The reply should contain only the number, in %.

// sample "O=S(=O)(NNc1ccccc1)c1ccccc1" , its growth inhibition was 47

// sample NC(CCCCCCCCCCCCC(N)C(=O)c1ccccc1)C(=O)c1ccccc1 (stereo unspecified) , its growth inhibition was 96

// sample CC(CC/C(=N/O)c1ccccc1)(CC/C(=N\O)c1ccccc1)[N+](=O)[O-] (stereo unspecified) , its growth inhibition was 0

// sample "O=[N+]([O-])c1ccc(C(c2c[nH]c3ccccc23)c2c[nH]c3ccccc23)cc1" , its growth inhibition was 92

// sample "CCOC(=O)/C(=C\c1cccc(C)c1)C(C)=O" , its growth inhibition was 89

// sample "O=C1/C(=C/c2ccc(Cl)c(Cl)c2)CNC/C1=C\c1ccc(Cl)c(Cl)c1" , its growth inhibition was 64

###

So I've got a bunch of compounds here, and I need their growth inhibition values.
- PROCEDURE SUMMARY: NCI Yeast Anticancer Drug Screen. Data for the rad18 strain (AID 177)
- CONDITION SET: S. cerevisiae rad18 mutant growth inhibition; at 3.7 µM; stronger effect = higher value
- Description: Growth inhibition of yeast strains with defined genetic alterations is measured as a screen for potential anti-cancer activity. Selected strains with alterations in DNA damage repair or cell cycle control were exposed to compounds and growth inhibition was measured relative to vehicle treated controls. The strain used in this assay is rad18
This is part of a sample that, as a whole, favours compounds with a hit. Of some 79,000 tested, about 15% had one in any assay.
The reply should contain only the number, in %.

// sample "Nc1cc2ccccc2cc1N" , its growth inhibition was -26

// sample "CC(C)(C)c1ccc2c(c1)C(=O)c1ccccc1C2=O" , its growth inhibition was -9

// sample CC(C)C(=O)CC(Sc1ccc(N)cc1)c1ccccc1 (centres undefined) , its growth inhibition was -2

// sample "c1ccc2nc3c(nc2c1)sc1ccccc13" , its growth inhibition was 21

// sample "O=C1c2ccccc2C(=O)c2sc(Nc3ccccc3Cl)nc21" , its growth inhibition was 25

// sample "CCCCCCNCCCNc1c2cc(OC)ccc2nc2cccc([N+](=O)[O-])c12" , its growth inhibition was 93

// sample NC(CS)C(=O)NCCNc1ccc(NCCNC(=O)C(N)CS)c2c1C(=O)c1c(O)ccc(O)c1C2=O (centres undefined) , its growth inhibition was -10

// sample "O=C1c2ccccc2-c2cc3ccccc3c(=O)n21" , its growth inhibition was -17

// sample "CCCCCCC=C(C(=O)OCC)C(=O)OCC" , its growth inhibition was 5

// sample "CC(=O)/C=C/c1cccc([N+](=O)[O-])c1" , its growth inhibition was 2

// sample O=C1CC(C(O)(C(F)(F)F)C(F)(F)Cl)CCC1C(O)(C(F)(F)F)C(F)(F)Cl (centres undefined) , its growth inhibition was 45

// sample "Cc1nc2sc3c(c2c(=O)o1)CCCC3" , its growth inhibition was -3

// sample "CC1(C)CC(=O)C(C=NC(=S)C(N)=S)=C(O)C1" , its growth inhibition was -4

// sample "CCOP(=O)(OCC)/C(C#N)=C/c1ccc(-c2ccc(F)cc2F)o1" , its growth inhibition was -2

// sample "CC(=O)CCC1=C(C)C(=O)C(=O)C(C)=C1O" , its growth inhibition was -7

// sample "O=C(O)C(=Cc1ccc(-c2ccccc2)cc1)C(=O)O" , its growth inhibition was 7

// sample "CN(N=O)C(=O)Nc1ccc(C(=O)O)cc1" , its growth inhibition was 47

// sample "Nc1cccc(-c2cc[cH-]c2)c1.[Fe+2].c1cc[cH-]c1" , its growth inhibition was 7

// sample "CCCCCc1c(CCCC)c(=O)[nH]c2cc(CNCC(OC)OC)ccc12" , its growth inhibition was 19

// sample "O=C(Cc1ccccc1)NNc1nc(NNC(=O)c2ccncc2)nc(Nc2ccc(Cl)cc2)n1" , its growth inhibition was 10

// sample "NCCOc1ccc(/C(=C(/Cl)c2ccccc2)c2ccccc2)cc1" , its growth inhibition was 29

// sample "Cc1cc(OCc2nc(N)nc(N)c2-c2ccc(Cl)c(Cl)c2)ccc1[N+](=O)[O-]" , its growth inhibition was -4

// sample COc1cc(OC)c(CSCC(NC(=O)OCC2c3ccccc3-c3ccccc32)C(=O)O)c(OC)c1 (centres undefined) , its growth inhibition was 8

// sample C=C(C(=O)OC)N1C(=O)CC(C)C1=O (centres undefined) , its growth inhibition was 7

Where do these numbers come from? They come from PubChem BioAssay (NCI).
